- measurement.protocol: Caco-2 intestinal permeability
- Type: in vitro ADME, human
- run.parameters: human, Caco-2, pH 7.4, with Elacridar 2 µM, A→B + Elacridar 2 µM
readout.type: recovery at 60 min (%)
One number for each entry, in %.

Query: Using the record for C[C@H]1O[C@@H](O[C@H]2[C@@H](O)C[C@H](O[C@H]3[C@@H](O)C[C@H](O[C@H]4CC[C@@]5(C)[C@H](CC[C@@H]6[C@@H]5C[C@@H](O)[C@]5(C)[C@@H](C7=CC(=O)OC7)CC[C@]65O)C4)O[C@@H]3C)O[C@@H]2C)C[C@H](O)[C@@H]1O [Digoxin, reference compound] , report its recovery at 60 min.
Response: 72

* * *

- measurement.protocol: Chromatographic Hydrophobicity Index (CHI)
- Format: physicochemical
- run.parameters: pH 2.0
- Protocol: The assay is a chromatographic fast gradient reversed-phase method which allows to characterize the lipophilicity of compounds in high throughput screening regime at three different pH values (2.0; 7.4; 10.5). […] For any value in between, the actual CHI value is calculated based on the calibration line of the reference compounds [49].
readout.type: CHI (pH 2.0)
One number for each entry.

# entry.smiles, value.measured
data = [
    ("COc1cc(C(=O)c2ccc(C)cc2)cc([N+](=O)[O-])c1O", 89.2),
    ("Cc1ccc(C(=O)c2cc(O)c(O)c([N+](=O)[O-])c2)cc1", 78.2),
    ("COc1cc(C(=O)c2cc(C)cc(C)c2)cc([N+](=O)[O-])c1O", 97.8),
]

Here's the next entry for you.
Query: Suppose we examine the compound `COc1cc(C(=O)c2ccc(C)cc2C)cc([N+](=O)[O-])c1O` ; what CHI (pH 2.0) value has been reported?
Response: 96.1

* * *

Could you please report measured recovery at 60 min, 10 µM for the items listed next?
- measurement.protocol: Caco-2 intestinal permeability
- Type: in vitro ADME, human
- run.parameters: human, Caco-2, pH 7.4, A→B
Answers are plain numbers, in %.

For orientation, consider the following solved cases.
# molecule, scale.unit, value.measured
data = [
    ("COc1cc(C(=O)c2ccc(C)cc2)cc([N+](=O)[O-])c1O", "%", 66),
    ("COc1cc(C(=O)c2cc(C)cc(C)c2)cc([N+](=O)[O-])c1O", "%", 64),
    ("Cc1ccc(C(=O)c2cc(O)c(O)c([N+](=O)[O-])c2)cc1", "%", 53),
]

// each listed molecule needs a value for recovery at 60 min, 10 µM
1. COc1cc(C(=O)c2ccc(C)cc2C)cc([N+](=O)[O-])c1O
2. COCCc1ccc(OCC(O)CNC(C)C)cc1 (stereo not drawn) [Metoprolol, reference compound]
3. C[C@H]1O[C@@H](O[C@H]2[C@@H](O)C[C@H](O[C@H]3[C@@H](O)C[C@H](O[C@H]4CC[C@@]5(C)[C@H](CC[C@@H]6[C@@H]5C[C@@H](O)[C@]5(C)[C@@H](C7=CC(=O)OC7)CC[C@]65O)C4)O[C@@H]3C)O[C@@H]2C)C[C@H](O)[C@@H]1O [Digoxin, reference compound]

Response:
69
105
67
